Where do the numbers come from? From patent US20200199204A1.

tested_on: HIV-1 Env of RW020.2 (HIV-1)
assay_remarks: cell-based or functional assay

{"binder": "CAP256-VRC26.12 (antibody, V domains shown) VH: EVQLVQSGGGVVQPGRSLRLSCAAPYFEFGRYGFHWVRQAPGKGLEWVASISFAGRDYYHSPSVWGRFTISRDNSKNTLYLQMNSLRIEDTALYFCARDLRESECEEWESDYYDFGKKGPCVKPRGVAGGLDLWGQGTMVIVSS VL: QSVLTQPPSVSTAPGQTVTVSCSGGTSNTGNNFVSWYQHLPGTAPKLLIYENNKRPLGVPDRFSGAKSGTSATLAITGLQTGDEGDYYCATWSGSLNIGTGTKVSVLG", "neutralization IC50": "> 50 µg/mL"}
